- Organism: Rattus norvegicus
- assayProcedure: Ratio of dissociation constant KD' of rat lung to KD' of rat heart
- Assay type: tissue-based
Please note: TRUE applies when Ratio is 6 or greater, and FALSE applies otherwise.

Before answering, review these 7 worked examples.
>  <compound>
CC(C)NCC(O)COc1ccc(NC(=O)CCCCCCC(=O)Nc2ccc(OCC(O)CNC(C)C)cc2)cc1 (centres undefined)

>  <assignedLabel>
FALSE

$$$$
>  <compound>
CC(C)NCC(O)COc1ccc(NC(=O)CNCCCCCCCCNCC(=O)Nc2ccc(OCC(O)CNC(C)C)cc2)cc1 (centres undefined)

>  <assignedLabel>
TRUE

$$$$
>  <compound>
CC(C)NCC(O)COc1ccc(NC(=O)CCCCCCCCC(=O)Nc2ccc(OCC(O)CNC(C)C)cc2)cc1 (centres undefined)

>  <assignedLabel>
TRUE

$$$$
>  <compound>
CC(C)NCC(O)COc1ccc(NC(=O)CCC(=O)Nc2ccc(OCC(O)CNC(C)C)cc2)cc1 (centres undefined)

>  <assignedLabel>
FALSE

$$$$
>  <compound>
CC(C)NCC(O)COc1ccc(NC(=O)CNCCCCNCC(=O)Nc2ccc(OCC(O)CNC(C)C)cc2)cc1 (centres undefined)

>  <assignedLabel>
FALSE

$$$$
>  <compound>
CC(C)NCC(O)COc1ccc(NC(=O)CN2CCN(CC(=O)Nc3ccc(OCC(O)CNC(C)C)cc3)CC2)cc1 (centres undefined)

>  <assignedLabel>
TRUE

$$$$
>  <compound>
CC(C)NCC(O)COc1ccc(NC(=O)CCCCC(=O)Nc2ccc(OCC(O)CNC(C)C)cc2)cc1 (centres undefined)

>  <assignedLabel>
TRUE

$$$$

In: # bool: Ratio of CC(C)NCC(O)COc1ccc(NC(=O)CNCCCCCCNCC(=O)Nc2ccc(OCC(O)CNC(C)C)cc2)cc1 (centres undefined) >= 6
Out: FALSE

====

Recorded KD' by entry
- studySystem: Beta-2 adrenergic receptor (Rattus norvegicus)
- testSettings: Lung, Membrane
- Description: Apparent dissociation constant towards beta-2 adrenergic receptor in rat lung membranes using (2-6)x10E-9M of [3AH]-DHA in the presence or absence of 10e-5 M (+/-) propranolol.
Give just the number in µM; leave the unit off.

>  <compound>
CC(C)NCC(O)COc1ccc(NC(=O)CCCCCCCCC(=O)Nc2ccc(OCC(O)CNC(C)C)cc2)cc1 (centres undefined)

>  <unitsText>
µM

>  <KD'>
1.4

$$$$
>  <compound>
CC(=O)Nc1ccc(OCC(O)CNC(C)C)cc1 (centres undefined)

>  <unitsText>
µM

>  <KD'>
36.5

$$$$
>  <compound>
CC(C)NCC(O)COc1ccc(NC(=O)CCC(=O)Nc2ccc(OCC(O)CNC(C)C)cc2)cc1 (centres undefined)

>  <unitsText>
µM

>  <KD'>
28.1

$$$$
>  <compound>
CC(C)NCC(O)COc1ccc(NC(=O)CN2CCN(CC(=O)Nc3ccc(OCC(O)CNC(C)C)cc3)CC2)cc1 (centres undefined)

>  <unitsText>
µM

>  <KD'>
28.1

$$$$
>  <compound>
CC(C)NCC(O)COc1ccc(NC(=O)CNCCCCCCCCNCC(=O)Nc2ccc(OCC(O)CNC(C)C)cc2)cc1 (centres undefined)

>  <unitsText>
µM

>  <KD'>
3.9

$$$$

Value (KD', Beta-2 adrenergic receptor (Rattus norvegicus)) for record CC(C)NCC(O)COc1ccc(NC(=O)CNCCCCCCNCC(=O)Nc2ccc(OCC(O)CNC(C)C)cc2)cc1 (centres undefined) = 28.1

Value (KD', Beta-2 adrenergic receptor (Rattus norvegicus)) for record CC(C)NCC(O)COc1ccc(NC(=O)CCCCC(=O)Nc2ccc(OCC(O)CNC(C)C)cc2)cc1 (centres undefined) = 67.5

Value (KD', Beta-2 adrenergic receptor (Rattus norvegicus)) for record CC(C)NCC(O)COc1ccc(NC(=O)CCCCCCC(=O)Nc2ccc(OCC(O)CNC(C)C)cc2)cc1 (centres undefined) = 3.9

Value (KD', Beta-2 adrenergic receptor (Rattus norvegicus)) for record CC(C)NCC(O)COc1ccc(NC(=O)CNCCCCNCC(=O)Nc2ccc(OCC(O)CNC(C)C)cc2)cc1 (centres undefined) = 186
